Items are presented alongside their recorded logP.
Outcome measure: logP

{"Compound": "CN(C)C(=O)NCCCn1nc(-c2ccccc2)ccc1=O", "Endpoint value": 1.61}
{"Compound": "CC(=O)OCC1=C(C(=O)O)N2C(=O)C(NC(=O)Cc3cc4ccccc4s3)C2SC1 (stereo not drawn)", "Endpoint value": 1.68}
{"Compound": "CC(=O)O[C@H]1C[C@H](O[C@H]2[C@@H](O)C[C@H](O[C@H]3[C@@H](O)C[C@H](OC4CC[C@@]5(C)[C@H](CC[C@@H]6[C@@H]5CC[C@]5(C)[C@@H](C7=CC(=O)OC7)CC[C@]65O)C4)O[C@@H]3C)O[C@@H]2C)O[C@H](C)[C@H]1O[C@@H]1O[C@H](CO)[C@@H](O)[C@H](O)[C@H]1O (stereo partly drawn)", "Endpoint value": 1.23}

FYI, the data here is from the OPERA property sets (Mansouri et al. 2018).
